Source: PubChem BioAssay AID1996

# settings: buffer; pH 7.4; 200.0 µM
outcome_measure: solubility kinetic

COc1ccc(C)cc1NC(=O)C1CC1c1ccccc1 (stereo not given) :: 4.7 µg/mL
CC(NC(=O)COC(=O)CCC(=O)c1ccc(F)cc1)c1ccccc1 (stereo not given) :: > 53.6 µg/mL

Below are some molecules; for each one, tell me its solubility kinetic.
1. Cc1ccc(C)c(S(=O)(=O)N2CCN(c3ncnc4sccc34)CC2)c1
2. COc1cc(OC)nc(Oc2ccc(N)c(C)c2)n1
3. Cc1ccc(S(=O)(=O)Nc2ccc(Cl)cn2)cc1
4. O=C(CSc1ncnc2c1oc1ccccc12)NC1CCCC1
5. COc1ccc(CCNc2nc(C)c(C(C)=O)s2)cc1OC

1. 5.6 µg/mL
2. > 39.2 µg/mL
3. 28.3 µg/mL
4. 3.4 µg/mL
5. 44.1 µg/mL

Give solubility kinetic for each of the items listed below.
1. O=C(O)CCc1ccc(S(=O)(=O)Nc2ccccc2N2CCCCC2)cc1
2. Cc1ccc(OCc2ccccc2C)c([N+](=O)[O-])n1
3. C[C@@H](C(=O)NC1CCCC1)N1C(=O)N2CCc3c([nH]c4ccccc34)[C@@]2(C)C1=O
4. C=CCN1CC(C)/C(=N\O)CC1C (stereo not given)
5. Cc1[nH]c2ccccc2c1C(=O)C(=O)Nc1ccc2c(c1)OCCO2
6. O=C(C1CC(=O)N(c2ccc(Cl)cc2)C1)N1CCOCC1 (stereo not given)
7. O=C(NCC1CCCO1)c1cc(-c2ccccc2F)no1 (stereo not given)

["> 58.3 µg/mL", "18.4 µg/mL", "48.7 µg/mL", "26.4 µg/mL", "1.9 µg/mL", "40 µg/mL", "42.4 µg/mL"]

Please state, for each entry, its recorded solubility kinetic.
1. CCOC(=O)N1CCN(C(=O)CCc2ccc(S(=O)(=O)NCC(C)C)cc2)CC1
2. Cc1ccc2c(c1)CCCN2C(=O)c1cc(C)on1
3. Cc1ccccc1NC(=O)CCCNC(=O)c1ccc(Cl)cc1
4. O=C1N(CN2CCOCC2)c2ccccc2C12OCC(CCl)O2 (stereo not given)
5. COc1ccccc1CC(=O)Nc1cc(C)ccn1
6. CC1=NOC(=O)/C1=C/c1ccc2c(c1)OCO2

1: 59.6 µg/mL; 2: > 38.4 µg/mL; 3: 42.6 µg/mL; 4: 49.6 µg/mL; 5: > 38.4 µg/mL; 6: 25.1 µg/mL

Provide solubility kinetic values for the following items, in order.
1. O=C(Cc1ccc(Br)cc1)Nc1ccc(Cl)cc1
2. CC(=O)Nc1ccc(OC(=O)Cc2ccc(Cl)cc2)cc1
3. CN1CCN(C(=O)/C=C/c2ccccc2)CC1
4. NC(=O)c1ccc(OCC(F)(F)F)nc1
5. COCCCNC(=S)Nc1cc2oc3ccccc3c2cc1OC

< 0.7 µg/mL
1.4 µg/mL
> 34.5 µg/mL
31.1 µg/mL
3.9 µg/mL
